Data credit: ChEMBL document CHEMBL1275584

# Tested on: Staphylococcus aureus
# assay_name: Antibacterial activity against Staphylococcus aureus 42 in presence of 1% bovine pulmonary surfactant by CLSI method
# Type: functional
# particulars: Staphylococcus aureus, 42, Pulmonary surfactant
measured_endpoint: MIC

Hey, can you go through the list below and give me MIC for every item?
1. CC[C@H](C)[C@@H]1NC(=O)[C@H]([C@H](C)CC(=O)O)NC(=O)[C@@H](CC(N)=O)NC(=O)CNC(=O)[C@H]([C@H](OC)C(=O)O)NC(=O)[C@@H](CCCCN)NC(=O)[C@H](CC(=O)O)NC(=O)[C@H](C)NC(=O)CN(C)C(=O)[C@@H](NC(=O)[C@H](CC(N)=O)NC(=O)[C@@H](CCC(=O)O)NC(=O)[C@H](Cc2c[nH]c3ccccc23)NC(=O)CCCCCCCC(C)C)[C@H](C)OC1=O
2. CC[C@H](C)[C@@H]1NC(=O)[C@H](CCC(=O)O)NC(=O)[C@@H](C)NC(=O)CNC(=O)[C@H]([C@H](OC)C(=O)O)NC(=O)[C@@H](CCCCN)NC(=O)[C@H](CC(=O)O)NC(=O)[C@H](C)NC(=O)CN(C)C(=O)[C@@H](NC(=O)[C@@H](NC(=O)[C@@H](CCC(=O)O)NC(=O)[C@H](Cc2c[nH]c3ccccc23)NC(=O)CCCCCCCC(C)C)[C@H](O)C(N)=O)[C@H](C)OC1=O

Data returned:
["16 µg/mL", "16 µg/mL"]
